system: HeLa; assay: Cytotoxicity against human HeLa cells after 48 hrs by MTT assay; assay type: functional, cell-based
Consider the cut-off 20 µM. If the recorded IC50 is strictly smaller, the label is MET; if not, the label is NOT MET.

See these solved cases before continuing.
- COc1ccc(NC(=O)[C@]23CC[C@@H](C)[C@H](C)[C@H]2C2=CC(=O)[C@@H]4[C@@]5(C)C[C@@H](O)[C@H](O)[C@@](C)(CO)[C@@H]5CC[C@@]4(C)[C@]2(C)CC3)cc1: NOT MET
- COc1ccccc1NC(=O)[C@]12CC[C@@H](C)[C@H](C)[C@H]1C1=CC(=O)[C@@H]3[C@@]4(C)C[C@@H](O)[C@H](O)[C@@](C)(CO)[C@@H]4CC[C@@]3(C)[C@]1(C)CC2: NOT MET
- Cc1ccc(NC(=O)[C@]23CC[C@@H](C)[C@H](C)[C@H]2C2=CC(=O)[C@@H]4[C@@]5(C)C[C@@H](O)[C@H](O)[C@@](C)(CO)[C@@H]5CC[C@@]4(C)[C@]2(C)CC3)cc1Cl: MET

Consider the compound C[C@H]1[C@H](C)CC[C@]2(C(=O)Nc3ccc(Cl)c(Cl)c3)CC[C@]3(C)C(=CC(=O)[C@@H]4[C@@]5(C)C[C@@H](O)[C@H](O)[C@@](C)(CO)[C@@H]5CC[C@]43C)[C@H]12 . Is its IC50 strictly less than 20 µM?
MET

Please give the result for Cc1cc(Br)ccc1NC(=O)[C@]12CC[C@@H](C)[C@H](C)[C@H]1C1=CC(=O)[C@@H]3[C@@]4(C)C[C@@H](O)[C@H](O)[C@@](C)(CO)[C@@H]4CC[C@@]3(C)[C@]1(C)CC2 too.
MET

And C[C@H]1[C@H](C)CC[C@]2(C(=O)Nc3ccccc3F)CC[C@]3(C)C(=CC(=O)[C@@H]4[C@@]5(C)C[C@@H](O)[C@H](O)[C@@](C)(CO)[C@@H]5CC[C@]43C)[C@H]12 ?
NOT MET

* * *

Listed next: entries and their corresponding IC50.
system: HeLa; test: Cytotoxicity against human HeLa cells after 48 hrs by MTT assay; assay type: functional, cell-based
// note: answer is a bare numeric in µM

I have this molecule here, C[C@H]1[C@H](C)CC[C@]2(C(=O)Nc3ccc(F)c(Cl)c3)CC[C@]3(C)C(=CC(=O)[C@@H]4[C@@]5(C)C[C@@H](O)[C@H](O)[C@@](C)(CO)[C@@H]5CC[C@]43C)[C@H]12 , and I need its recorded IC50.
14.2

Could you do the same for C[C@H]1[C@H](C)CC[C@]2(C(=O)O)CC[C@]3(C)C(=CC[C@@H]4[C@@]5(C)C[C@@H](O)[C@H](O)[C@@](C)(CO)[C@@H]5CC[C@]43C)[C@H]12 [ASIATIC ACID] , please?
37.3

Lookup C[C@H]1[C@H](C)CC[C@]2(C(=O)Nc3ccc(Cl)cc3)CC[C@]3(C)C(=CC(=O)[C@@H]4[C@@]5(C)C[C@@H](O)[C@H](O)[C@@](C)(CO)[C@@H]5CC[C@]43C)[C@H]12
13.1

* * *

# IC50 listing for each entry below
test system: HeLa; experiment: Cytotoxicity against human HeLa cells after 48 hrs by MTT assay; format: functional, cell-based
Just the number please, in µM, no unit attached.

Would you please look over these solved cases?
• C[C@H]1[C@H](C)CC[C@]2(C(=O)Nc3cccc(Br)c3)CC[C@]3(C)C(=CC(=O)[C@@H]4[C@@]5(C)C[C@@H](O)[C@H](O)[C@@](C)(CO)[C@@H]5CC[C@]43C)[C@H]12 = 16.2
• COc1cccc(NC(=O)[C@]23CC[C@@H](C)[C@H](C)[C@H]2C2=CC(=O)[C@@H]4[C@@]5(C)C[C@@H](O)[C@H](O)[C@@](C)(CO)[C@@H]5CC[C@@]4(C)[C@]2(C)CC3)c1 = 17.8
• Cc1cccc(NC(=O)[C@]23CC[C@@H](C)[C@H](C)[C@H]2C2=CC(=O)[C@@H]4[C@@]5(C)C[C@@H](O)[C@H](O)[C@@](C)(CO)[C@@H]5CC[C@@]4(C)[C@]2(C)CC3)c1 = 14.6

From here, focus on the item given below.
Quick one: IC50 for Cc1ccc(NC(=O)[C@]23CC[C@@H](C)[C@H](C)[C@H]2C2=CC(=O)[C@@H]4[C@@]5(C)C[C@@H](O)[C@H](O)[C@@](C)(CO)[C@@H]5CC[C@@]4(C)[C@]2(C)CC3)cc1 ?
32.5
